experimentalTarget: recombinant human IDE42-1019 (Homo sapiens)
Construct: recombinant human IDE42-1019 (R&D Systems); purchased R&D Systems
Sequence (P14735 42-1019): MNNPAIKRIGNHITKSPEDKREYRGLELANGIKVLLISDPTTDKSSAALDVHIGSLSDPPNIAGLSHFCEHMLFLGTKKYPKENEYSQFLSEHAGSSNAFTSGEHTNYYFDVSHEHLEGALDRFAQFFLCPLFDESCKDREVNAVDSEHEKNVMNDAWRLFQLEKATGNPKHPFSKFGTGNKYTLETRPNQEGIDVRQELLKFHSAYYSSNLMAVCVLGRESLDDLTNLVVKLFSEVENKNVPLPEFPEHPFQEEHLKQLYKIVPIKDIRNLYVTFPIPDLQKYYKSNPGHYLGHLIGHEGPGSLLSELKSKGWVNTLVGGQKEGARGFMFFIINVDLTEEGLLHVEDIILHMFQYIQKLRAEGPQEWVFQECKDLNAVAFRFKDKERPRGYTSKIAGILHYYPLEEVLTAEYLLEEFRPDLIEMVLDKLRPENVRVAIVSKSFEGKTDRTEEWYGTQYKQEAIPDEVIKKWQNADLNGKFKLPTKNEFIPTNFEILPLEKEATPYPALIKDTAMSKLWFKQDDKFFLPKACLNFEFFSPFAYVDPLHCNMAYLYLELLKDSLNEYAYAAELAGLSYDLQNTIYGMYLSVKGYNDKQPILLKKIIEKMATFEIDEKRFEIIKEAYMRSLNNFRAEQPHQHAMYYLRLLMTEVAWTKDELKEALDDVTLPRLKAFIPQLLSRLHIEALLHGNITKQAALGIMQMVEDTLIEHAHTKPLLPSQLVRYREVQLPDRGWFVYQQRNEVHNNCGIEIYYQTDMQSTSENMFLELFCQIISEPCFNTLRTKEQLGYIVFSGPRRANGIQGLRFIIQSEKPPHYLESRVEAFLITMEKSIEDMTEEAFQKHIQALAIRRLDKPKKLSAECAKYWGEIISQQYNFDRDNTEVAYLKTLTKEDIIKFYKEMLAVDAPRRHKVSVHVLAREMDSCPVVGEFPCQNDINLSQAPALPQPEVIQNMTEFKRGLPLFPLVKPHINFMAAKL
protocol: Protease assay with fluorogenic peptide substrate Mca-[…](Dnp)-OH
Format: biochemical
experimentalParameters: fluorogenic peptide Mca-RPPGFSAFK(Dnp)-OH; apparent IC50 for compounds with submaximal inhibition; read-out: IC50 (μM) Proteolysis

{"molecule": "Cc1ccccc1-c1ccc([C@@H]2[C@H]3CN(S(=O)(=O)c4cn(C)cn4)CCCCN3[C@H]2CO)cc1", "IC50": "2.5 µM"}
{"molecule": "Cc1ccccc1-c1ccc(C2C3CN(Cc4cncnc4)CC2N3)cc1 (stereo not shown)", "IC50": "7.5 µM"}
{"molecule": "Cc1ccccc1-c1ccc(C2C3CN(C(=O)C4CCOCC4)CC2N3)cc1 (stereo not shown)", "IC50": "2.5 µM"}
{"molecule": "CCC(=O)N1[C@H](CO)[C@H](c2ccc(-c3ccccc3OC)cc2)[C@@H]1CNC(C)=O", "IC50": "7 µM"}
{"molecule": "CCS(=O)(=O)N1CCCCN2[C@@H](CO)[C@@H](c3ccc(C#Cc4ccccc4OC)cc3)[C@@H]2C1", "IC50": "2.5 µM"}
{"molecule": "Cc1ccccc1S(=O)(=O)N1CCN(c2ccc(-c3cccc(C)c3C)cc2)CC1", "IC50": "1 µM"}
{"molecule": "OC[C@H]1[C@@H](c2ccc(C#Cc3ccccc3F)cc2)[C@@H]2CN(Cc3cncnc3)CCCCN12", "IC50": "7 µM"}
{"molecule": "Cc1ccccc1S(=O)(=O)N1CCCCN2[C@H](CO)[C@@H](c3ccc(-c4cccc(C(F)(F)F)c4)cc3)[C@@H]2C1", "IC50": "7.5 µM"}
{"molecule": "Cc1cccc(-c2ccc([C@@H]3[C@@H](CO)N4CCCCN(S(=O)(=O)N5CCN(C)CC5)C[C@@H]34)cc2)c1C", "IC50": "0.03 µM"}
{"molecule": "Cc1cccc(-c2ccc(C3CCN(Cc4ccccc4Oc4ccccc4)CC3)cc2)c1C", "IC50": "7 µM"}
{"molecule": "Cc1ccccc1S(=O)(=O)N1CCCCN2[C@H](CF)[C@@H](c3ccc(-c4cccc(C)c4C)cc3)[C@@H]2C1", "IC50": "0.05 µM"}
{"molecule": "Cc1cccc(-c2ccc(C3CCN(C(=O)c4ccc5c(c4)OCCN5C)CC3)cc2)c1C", "IC50": "0.9 µM"}
{"molecule": "Cc1ccccc1S(=O)(=O)N1CCCCN2[C@H](CO)[C@@H](c3ccc(-c4cccc(F)c4F)cc3)[C@@H]2C1", "IC50": "0.8 µM"}
